The entries below are paired with their reported IC50.
target_or_system: T1, rhNav1.7α + β1-β2-β3 (rhesus monkey)
T1 construct: also called rhNav1.7-beta1-beta2-beta3; rhNav1.7-β1-β2-β3
experiment: competition FACS vs EC40 of F103275B05(N93R), CHO FlpIn
Just the number in nM, nothing appended.

Example entries and their recorded answers appear below.
binder	unit_tag	recorded_number
F010302378 (bispecific antibody, also called F0103275B05(E1D, N93R)-50GS-F0103495F09-FLAG3-HIS6) DVQLVESGGGLVQPGGSLRLSCAASGSIFNINSMAWYRRAPGKQRELVASSTNGGSTNYADSVKGRFTISRDNAKRVYLQMNSLTPEDTAVYYCRALLQPSIYDISRTYWGQGTLVTVSSGGGGSGGGGSGGGGSGGGGSGGGGSGGGGSGGGGSGGGGSGGGGSGGGGSEVQLVESGGGLVQAGSSLSLSCAASGRALSTYAMGWFRQAPGKEREFVARISRSGITTYYTDSVKGRFTISRDRAKDTVYLQMNSLKPEDTAIYLCAADASTNPAGYYLRNRYDYWGQGTLVTVSSGAADYKDHDGDYKDHDIDYKDDDDKGAAHHHHHH	nM	6.6
F010302380 (bispecific antibody, also called F0103275B05(E1D, N93R)-50GS-F0103505D08(L108Q)-FLAG3-HIS6) DVQLVESGGGLVQPGGSLRLSCAASGSIFNINSMAWYRRAPGKQRELVASSTNGGSTNYADSVKGRFTISRDNAKRVYLQMNSLTPEDTAVYYCRALLQPSIYDISRTYWGQGTLVTVSSGGGGSGGGGSGGGGSGGGGSGGGGSGGGGSGGGGSGGGGSGGGGSGGGGSEVQLVESGGGLVQAGGSLRLSCVTSGRTSDLSTMNWFRQAPGKEREFVARITRRGSTYYAESVKERFIISRDNAKNTVYLQMNSLKPEDTANYYCTAASEMGYHYRGQGTQVTVSSGAADYKDHDGDYKDHDIDYKDDDDKGAAHHHHHH	nM	2
F010302377 (bispecific antibody, also called F0103275B05(E1D, N93R)-50GS-F0103492E09-FLAG3-HIS6) DVQLVESGGGLVQPGGSLRLSCAASGSIFNINSMAWYRRAPGKQRELVASSTNGGSTNYADSVKGRFTISRDNAKRVYLQMNSLTPEDTAVYYCRALLQPSIYDISRTYWGQGTLVTVSSGGGGSGGGGSGGGGSGGGGSGGGGSGGGGSGGGGSGGGGSGGGGSGGGGSEVQLVESGGGLVQAGGSLRLSCAASKSILSFAYMRWYRQAPGKQREFVASIAIGGATSYTDSVKGRFTISRDNAKNTVYLQMNSLKPEDTAVYYCSAPAGQYRGQGTLVTVSSGAADYKDHDGDYKDHDIDYKDDDDKGAAHHHHHH	nM	1.2
F010302375 (bispecific antibody, also called F0103275B05(E1D, N93R)-50GS-F0103478E09(L108Q)-FLAG3-HIS6) DVQLVESGGGLVQPGGSLRLSCAASGSIFNINSMAWYRRAPGKQRELVASSTNGGSTNYADSVKGRFTISRDNAKRVYLQMNSLTPEDTAVYYCRALLQPSIYDISRTYWGQGTLVTVSSGGGGSGGGGSGGGGSGGGGSGGGGSGGGGSGGGGSGGGGSGGGGSGGGGSEVQLVESGGGLVQAGGSLRLSCAASGRAFSTLAMGWFRQAPGKEREFVAAISRNGNNSATGDSLKGRFTISRDSTKSTVFLQMNTLKPEDTAVYYCAAISTPSASHPYVRKESYRYWGQGTQVTVSSGAADYKDHDGDYKDHDIDYKDDDDKGAAHHHHHH	nM	6.5

Problem: Field request: IC50 | item: F010300468 (VHH, also called F0103275B05(N93R) + FLAG3-HIS6; F103275B05(N93R) + FLAG3-HIS6) VHH: EVQLVESGGGLVQPGGSLRLSCAASGSIFNINSMAWYRRAPGKQRELVASSTNGGSTNYADSVKGRFTISRDNAKRVYLQMNSLTPEDTAVYYCRALLQPSIYDISRTYWGQGTLVTVSS
Solution: 77

Problem: // query IC50 value for entry F010302379 (bispecific antibody, also called F0103275B05(E1D, N93R)-50GS-F0103500E03(P14A, L108Q)-FLAG3-HIS6) DVQLVESGGGLVQPGGSLRLSCAASGSIFNINSMAWYRRAPGKQRELVASSTNGGSTNYADSVKGRFTISRDNAKRVYLQMNSLTPEDTAVYYCRALLQPSIYDISRTYWGQGTLVTVSSGGGGSGGGGSGGGGSGGGGSGGGGSGGGGSGGGGSGGGGSGGGGSGGGGSEVQLVESGGGLVQAGGSLRLSCAASGRTFSRYQMGWFRQAPGKEREFVAYISWSGSTRYVDSVKGRFTISRDNAKNTVYLQMNSLKPEDTAVYHCAAGTAGIISSRPETYDSWGQGTQVTVSSGAADYKDHDGDYKDHDIDYKDDDDKGAAHHHHHH
Solution: 4.8
